# Assay Explanation: Elimination half-life of the active metabolite (II) in man
# Test Settings: human, in vivo
Parameter: half-life

IN: May I ask what half-life has been recorded for CC(=O)Nc1ccc(C2=NNC(=O)C[C@H]2C)cc1 [active metabolite (II)] ?
OUT: ~72 h

The measurements presented in this section are drawn from patent US20060166994A1.
